Documented unfolding enthalpy (calorimetric) across a set of variants
B1: Subtilisin-chymotrypsin inhibitor-2A, P01053 (parent)
chain: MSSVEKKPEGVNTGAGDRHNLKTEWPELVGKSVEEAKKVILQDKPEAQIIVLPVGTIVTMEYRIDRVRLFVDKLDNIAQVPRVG

# Variants of: B1
# Condition Info: Hordeum vulgare; pH 3; Thermal; DSC; MES 450 mM; reversible: yes; structure 2CI2; whole UniProt chain shown
Please reply with the bare figure in kcal/mol and do not write the unit itself.

Asked: Return unfolding enthalpy (calorimetric) (reported value) for this variant: "V71A"
Given back: 48.5

***
Asked: Fill in reported unfolding enthalpy (calorimetric) for this entry: "I77V"
Given back: 60.5

Asked: Supply recorded unfolding enthalpy (calorimetric) for "L28A" here.
Given back: 45

Data provenance: FireProtDB (doi:10.1021/bi00093a001)
